Where do the numbers come from? From paper PMC2365028.

Test system: Caco-2 cell monolayers
assay-notes: Apical-to-basal transport and metabolism across Caco-2 cell monolayers (Transwell)
condition-parameters: Table 2; 37C static, 4 h; initial concentration 7.5 mM
reported-property: Apparent permeability coefficient Pe + SD (×10⁻⁶ cm/s)
Could you give me the number in ×10⁻⁶ cm/s? Just the number is fine.

Entry under test: COC(=O)[C@H](Cc1ccccc1)NC(=O)[BH2-][N+](C)(C)C [Compound I] . Its Apparent permeability coefficient Pe + SD was 37.5

---

Test system: Caco-2 cell monolayers
assay-notes: Apical-to-basal transport and metabolism across Caco-2 cell monolayers (Transwell)
condition-parameters: Table 2; 37C static, 4 h; initial concentration 5.0 mM (fourth row)
Source text: TRANSEPITHELIAL TRANSPORT AND METABOLISM OF BORONATED DIPEPTIDES ACROSS CACO-2 AND HCT-8 CELL MONOLAYERS Amy L. Elkins,John G. Eley,3, Merrill C. […] This study examined the effect of boronation on the transepithelial transport and metabolism of three glycine-phenylalanine dipeptides in Caco-2 and HCT-8 cell monolayers. […] Oral delivery of proteins and peptides as therapeutic agents is problematic due to their low bioavailability. […]
reported-property: Apparent permeability coefficient Pe + SD (×10⁻⁶ cm/s)
Quick note: give the figure in ×10⁻⁶ cm/s, leave out the unit.

COC(=O)[C@H](Cc1ccccc1)NC(=O)[BH2-][N+](C)(C)C [Compound I] has a reported Apparent permeability coefficient Pe + SD of 32

---

System: Caco-2 cell monolayers
assay-notes: Apical-to-basal transport and metabolism across Caco-2 cell monolayers (Transwell)
condition-parameters: Table 8; 4 h; 4C Static
reported-property: Apparent permeability coefficient Pe + SD (×10⁻⁶ cm/s)
Response body: numeric value in ×10⁻⁶ cm/s, unit text excluded.

// field: Apparent permeability coefficient Pe + SD; key: COC(=O)[C@H](Cc1ccccc1)NC(=O)CN(C)C [Compound III] ; value = 8

---

Test system: Caco-2 cell monolayers
assay-notes: Apical-to-basal transport and metabolism across Caco-2 cell monolayers (Transwell)
condition-parameters: Table 2; 37C static, 4 h; initial concentration 1.0 mM
reported-property: Apparent permeability coefficient Pe + SD (×10⁻⁶ cm/s)
State the answer as a number, implicitly in ×10⁻⁶ cm/s.

// field: Apparent permeability coefficient Pe + SD; key: COC(=O)[C@H](Cc1ccccc1)NC(=O)[BH2-][N+](C)(C)C ; value = 35.1

---

Test system: Caco-2 cell monolayers
assay-notes: Apical-to-basal transport and metabolism across Caco-2 cell monolayers (Transwell)
condition-parameters: Table 2; 37C static, 4 h; initial concentration 2.5 mM
reported-property: Apparent permeability coefficient Pe + SD (×10⁻⁶ cm/s)
Quick reminder: number only, in ×10⁻⁶ cm/s, skip the unit.

For record COC(=O)[C@H](Cc1ccccc1)NC(=O)[BH2-][N+](C)(C)C [Compound I] the listed Apparent permeability coefficient Pe + SD is 37.5

---

System: Caco-2 cell monolayers
assay-notes: Apical-to-basal transport and metabolism across Caco-2 cell monolayers (Transwell)
condition-parameters: Table 6; 4 h; 37C Rocking
reported-property: Apparent permeability coefficient Pe + SD (×10⁻⁶ cm/s)
Respond numerically; units are ×10⁻⁶ cm/s and should not be typed.

Per the record, COC(=O)[C@H](Cc1ccccc1)NC(=O)[BH2-][NH+](C)C [Compound II] has Apparent permeability coefficient Pe + SD of 48
